Provide the reported protein stability index of each item.
- assayInfo: protein stability index of a GFP-peptide fusion (GPS, HEK-293T) (PSI 1-6); higher = more stable;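 also: 24-mer peptide tiles fused after GFP, lentivirally expressed, FACS-sorted into six equal bins by GFP/DsRed ratio, decoded by Illumina sequencing, PSI is the read-weighted mean bin number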
- measurementSetup: treatment: MLN4924 1 uM, 8 h; c terminus: a fixed tail appended
Answers are plain numbers.

Some solved cases for reference:
Could you tell me which protein stability index is on file for GPGPQLRRGWRPSSREDSLEAGLP [CHGA] ?
4.24

Could you tell me which protein stability index is on file for EIFVDCDINREQLNDIFHLLKSHT [TPH1] ?
2.19

Working through the 4 sequences below one at a time, give protein stability index for each.
1. KLGAPLSGLQGLPECTRCGHGIVG [PDLIM4]
2. LLSLKQNHEQEVNTLRCQLGDRLN [KRT33B]
3. GVRESETEQGFGEDLEDLGAVAPP [NFE2L1]
4. FSSYNKQDNNCHFDAALVSFINFF [SLC6A17]

1. 2.75
2. 3.46
3. 5.9
4. 2.64

Working through the 4 sequences below one at a time, give protein stability index for each.
1. MSDRRENDMSPSNNVVPIHVPPTT [RAB11A]
2. LKPRPEPPKKPSNWRRKHEEFIAT [ZC2HC1A]
3. RCHTVPCAGSTALQEPGEPQGPPA [PXN]
4. ALALQARGCSVKIWTAHYDPGHCF [ALG2]

1. 4.87
2. 3.56
3. 4.92
4. 2.23

Working through the 2 sequences below one at a time, give protein stability index for each.
1. AEVRHEIQDGTIHLYIYSIHSIPK [KMT2E]
2. GDLQETTVVTGLGPDTQDLEGQSP [PBXIP1]

1.51
5.58

Could you tell me which protein stability index is on file for DFHYCDREHVCRKDQRNPPSLGRV [RBMY1A1] ?
3.8

* * *

Provide the reported protein stability index of each item.
- assayInfo: protein stability index of a GFP-peptide fusion (GPS, HEK-293T) (PSI 1-6); higher = more stable
- measurementSetup: treatment: DMSO; c terminus: a fixed tail appended

Could you tell me which protein stability index is on file for NGQKPLGAAEPITVKFANNPSQKT [ELAVL3] ?
4.85

Working through the 7 sequences below one at a time, give protein stability index for each.
1. KLREFLRVEEQAILDAMAEETRQK [TRIM35]
2. GDLAYRRQEYQKALQEYSSISEKL [C8orf76]
3. HYGGVVSLIPLILDLMKEWIAHSE [SPACA9]
4. KNTSEQDQPMGGWEMIRKIGDTSV [LMNB1]
5. RVLFIKDVIGDEICCWSFYGQGRK [KCTD10]
6. CQACRFMKCLKVGMLKEGVRLDRV [ESRRG]
7. VEGFRVTLVDEGDLYNWEVAIFGP [CDC34]

1. 2.85
2. 4.14
3. 3.02
4. 4.27
5. 1.89
6. 2.6
7. 3.11

* * *

- assayInfo: protein stability index of a GFP-peptide fusion (GPS, HEK-293T) (PSI 1-6); higher = more stable
- measurementSetup: treatment: DMSO; c terminus: a fixed tail appended
propertyMeasured: protein stability index
Give bare numbers.

Could you tell me which protein stability index is on file for MSVNVNRSVSDQFYRYKMPRLIAK [EIF5] ?
2.52

Could you tell me which protein stability index is on file for VPEEEQAANKGEEKKDDENIPMET [SMARCE1] ?
5.63

Could you tell me which protein stability index is on file for AYMDRRDHPLPEVAHVKHLSASQK [COX4I1] ?
4.34

Could you tell me which protein stability index is on file for AIPIEIKSIDDTSNFDDFPESDIL [STK38L] ?
4.67

Working through the 3 sequences below one at a time, give protein stability index for each.
1. LEEGSSFWNQGLTWKVLFCSMSAT [CLCN6]
2. QTVGVGRGRFTTYEIRVKTNLPIF [SNX3]
3. FFLAILSCSEICYTFIIVPKMLVD [OR10K2]

1: 3.06; 2: 2.83; 3: 3.42

Working through the 3 sequences below one at a time, give protein stability index for each.
1. AETQPQNPPAQPAPNAWQVIKGVL [CLPTM1]
2. LERKFRCQQEQLFQTRQEMTSMSA [LRRC45]
3. KDRECQSQSLALKEQNNLKQLEFG [ZNF8]

[3.55, 3.22, 4.56]

Working through the 3 sequences below one at a time, give protein stability index for each.
1. QVSPVRRAPSRRHGVRAKVQPQAR [CPN1]
2. TSTPPPASVINNMLAEIFCQTGGV [ZBED1]
3. YLPRDFSTYRPLPDPSVWSRRYTE [MYORG]

1. 4.88
2. 2.84
3. 2.64

* * *

- assayInfo: protein stability index of a GFP-peptide fusion (GPS, HEK-293T) (PSI 1-6); higher = more stable
- measurementSetup: treatment: DMSO; c terminus: a fixed tail appended
Give 1 (yes) when the value for protein stability index is at least 4. Give 0 (no) when it is less.

protein stability index >= 4 for WMQANYDPLSDSDSMTSQAKPEAL [ELOA2] ?
1 (yes)

protein stability index >= 4 for IYGRSQNPVQPIGPQTPKACDSKL [MMP1] ?
1 (yes)

protein stability index >= 4 for VSGCPEDLTVGRAPTADDDDDDHD [NOL4L] ?
1 (yes)

protein stability index >= 4 for YRQKLLMFLEISSYYDPGRLICDF [VPS39] ?
0 (no)

protein stability index >= 4 for KIIICSQNEEYLLTYINEDRISTT [PLK2] ?
0 (no)

protein stability index >= 4 for AGGAGGGVTEEQEGFADGFVKALD [JUNB] ?
1 (yes)

protein stability index >= 4 for DNIKYQPKGGQVQIVTKKIDLSHV [MAP2] ?
0 (no)

* * *

- assayInfo: protein stability index of a GFP-peptide fusion (GPS, HEK-293T) (PSI 1-6); higher = more stable
- measurementSetup: treatment: DMSO; c terminus: a fixed tail appended
Provide the reported protein stability index of each item.
Numbers only.

Some solved cases for reference:
Could you tell me which protein stability index is on file for GRVLLANSTQADEGKTKKGVLEAP [FBXO34] ?
5.01

Could you tell me which protein stability index is on file for HLYAEPQKSPWCEARSLEHTLPVN [ESR2] ?
2.93

Could you tell me which protein stability index is on file for VVAAVGKELIIFRLVAPTEGSLEW [WDR41] ?
2.3

Could you tell me which protein stability index is on file for AMVTADSKYCYGPQGSRSPYIPPH [FKBP8] ?
3.27

Could you tell me which protein stability index is on file for DLVQWTRHMEAVKAQLLEQAQGQL [SOAT2] ?
2.62

Working through the 2 sequences below one at a time, give protein stability index for each.
1. HNTVKLGAFQAQEKELVFDIDMTD [PRIM1]
2. FIALLILFILSTLVVDYIDEGRLV [SOAT1]

1: 4.22; 2: 3.18

Working through the 2 sequences below one at a time, give protein stability index for each.
1. GSSRSPGSKARAEGRGPVTPLHLD [PLEKHN1]
2. VQEVMEEEWNALQSVENCPEDLAQ [RPAIN]

[4.91, 5.51]

Working through the 6 sequences below one at a time, give protein stability index for each.
1. VKRKMDGREYPDAQGFAADVRLMF [BRD3]
2. SMENANQENEEKEQVANKGEPLAL [BEX1]
3. NPNLSNRRGSTPLHMAVERRVRGV [RIPK4]
4. MRAQAQEQERRERREQAAAAPFPS [TFE3]
5. QCSMPLHVAPLLAAAGLHASPMSA [NR2F2]
6. SNFEQTQIQEFKEAFTLMDQNRDG [MYL5]

2.44
5
3.84
5.09
2.58
5.11

Working through the 3 sequences below one at a time, give protein stability index for each.
1. RVDHGAEIITQSPGRSSVASPRRL [MAP2]
2. RKQARQLENELDLKLVSFSKLCTS [GOSR1]
3. YANAVLQALSNVPPLRNYFLEEDN [USP39]

1. 4.45
2. 3.03
3. 2.19

* * *

- assayInfo: protein stability index of a GFP-peptide fusion (GPS, HEK-293T) (PSI 1-6); higher = more stable
- measurementSetup: treatment: MLN4924 1 uM, 8 h; c terminus: a fixed tail appended
Provide the reported protein stability index of each item.
Answers are plain numbers.

Some solved cases for reference:
Could you tell me which protein stability index is on file for YEFQIPYICPDYQSYFKTIEDFQQ [KRT36] ?
2.07

Could you tell me which protein stability index is on file for LERKFRCQQEQLFQTRQEMTSMSA [LRRC45] ?
3.21

Could you tell me which protein stability index is on file for PGRGHTHAAQGGPLLCPGCQGQPQ [ELOA2] ?
4.47

Could you tell me which protein stability index is on file for KLREFLRVEEQAILDAMAEETRQK [TRIM35] ?
3.34

Could you tell me which protein stability index is on file for CGTPLRKSNFRVQLFEDPTVDKEV [MNAT1] ?
3.75

Could you tell me which protein stability index is on file for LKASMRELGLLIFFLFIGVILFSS [KCNA1] ?
2.31

Working through the 8 sequences below one at a time, give protein stability index for each.
1. PGSMSEVQELCKQLHAKIDAAEEE [TNNI2]
2. LICEGLYPASIVDEPTFKVLLKTA [ZBED1]
3. GATYLELHSLDDFYIGKYFGGVLE [RHOBTB3]
4. DRERQPLLDRARGAAAQGQTQTVA [PI4K2A]
5. NTLRCQLGDRLNVEVDAAPAVDLN [KRT33B]
6. ISENRKRQWPTKSQTDRGASAGKR [SDE2]
7. QLRLLQAPLQADLTEQVWKVQDAL [SCARA5]
8. LTCVICLNYLVDPVTICCGHSFCR [TRIM43]

1: 5.36; 2: 2.31; 3: 2.32; 4: 5.13; 5: 4.39; 6: 4.94; 7: 3.12; 8: 2.91

Working through the 5 sequences below one at a time, give protein stability index for each.
1. PPAALESSDSANTTIEDEDAKARK [CAMK2B]
2. AFERQQVENRVVEEAKGLLDKVKD [ZBED1]
3. VGAAYASLRRRGASAAARLGCNRQ [TRIM14]
4. IELEGISVMVMREILDYIFSGQIR [GAN]
5. VDDKFGTGTKKVTRILDGGNPFLD [PSD2]

[5.7, 5.61, 4.09, 2.86, 4.23]

Working through the 7 sequences below one at a time, give protein stability index for each.
1. DLLHGPECRSSVTSDSEGAHVNTL [PHTF1]
2. NSESWGWDIGRGKLYHQSKGPGAP [SPSB2]
3. ELLTGQPLWPGKSDVDQLYLIIRT [CDKL4]
4. MSVNVNRSVSDQFYRYKMPRLIAK [EIF5]
5. IGRGTKVILHLKEDQTEYLEERRV [HSP90AB1]
6. VDNIDMIDGDGDDMERFMEEMREL [BEX5]
7. GEVLKSSTFSSGPSDKMKWCLRVN [SPOPL]

1. 4.61
2. 3.98
3. 2.24
4. 2.77
5. 3.57
6. 5.26
7. 2.43

Working through the 6 sequences below one at a time, give protein stability index for each.
1. TYWQCGQYLGVGPGAHGRFMPQGA [RSAD1]
2. MPHARTETSVGTYESHSTSELEDL [TPD52L3]
3. TQLTQNAVSCPYLPSNLLKKFRSS [KCNA4]
4. ADSVITVGRGEVVTVRVPTHEEGS [ACBD3]
5. SWNSQSSLLDVQRVPSFESFEDDC [ETS2]
6. GEGVDKLSLPARNQAGYFMLPTVI [ALDH8A1]

1. 2.65
2. 5.37
3. 3.39
4. 4.88
5. 4.67
6. 2.36

Working through the 5 sequences below one at a time, give protein stability index for each.
1. RAKEEERLNKLRLESEGSPETLTN [HACD3]
2. GGDGDDMEIFMEEMREIRRKLREL [BEX3]
3. RALDRLQEVPHEGPMCDLLWSDPD [PPP2CA]
4. RKQARQLENELDLKLVSFSKLCTS [GOSR1]
5. ALLDQIRQGIQLNKTPGAPESSAL [WAS]

5.28
2.04
4.66
3.22
3.15

Working through the 6 sequences below one at a time, give protein stability index for each.
1. GKAYGWCSELIRHRRVHARKEPSH [ZNF232]
2. SLDFTKKILHTAWHPAENIIAIAA [PPP2R2C]
3. YGETCFPKGRFERKRNPSRKKQHI [ZNF24]
4. HITKLKPWSLFDVLVEKYGWPHED [SRPK2]
5. PCQKSPNGVRVFPPAMPPPATHLS [TRIM9]
6. EPSSDPSLLGEPCAGPGFTHNIAH [SPAG8]

1: 3.26; 2: 2.29; 3: 3.24; 4: 2.38; 5: 3.78; 6: 4.52

Working through the 6 sequences below one at a time, give protein stability index for each.
1. AASVRMRGEAEAFAIGARARAEAE [FLOT1]
2. INRCSVLRQLGCKDGKNWNSNQAT [SPOPL]
3. LAESGGSPDVLQMLKIHRSDPQLI [TRADD]
4. TSQGQVRMRLFGQRCQKCSWSQYE [RTP4]
5. KAKFCSTVANDVMLRTGLGVIRMW [NETO1]
6. GHRPPPARSGHRCVADNTNLYVFG [KLHDC10]

[4.96, 2.78, 3.36, 2.01, 2.27, 2.44]

Working through the 4 sequences below one at a time, give protein stability index for each.
1. MYLSPPSIHCLGPIKLELLEPKAN [VPS39]
2. ICIMDAENITTVSVIKDHHTRSIT [WDR88]
3. QHSVPLQLELRAGAERLDALLADE [TRADD]
4. SEIPRGVRVALDYEAGQVTLHNAQ [TRIM15]

[2.41, 2.18, 4.62, 4.57]
